The entries that follow carry Ki values tested on Alpha-1A adrenergic receptor (Homo sapiens), drawn from several published reports.
Biological target: Alpha-1A adrenergic receptor (Homo sapiens)
Sequence (P35348 whole entry): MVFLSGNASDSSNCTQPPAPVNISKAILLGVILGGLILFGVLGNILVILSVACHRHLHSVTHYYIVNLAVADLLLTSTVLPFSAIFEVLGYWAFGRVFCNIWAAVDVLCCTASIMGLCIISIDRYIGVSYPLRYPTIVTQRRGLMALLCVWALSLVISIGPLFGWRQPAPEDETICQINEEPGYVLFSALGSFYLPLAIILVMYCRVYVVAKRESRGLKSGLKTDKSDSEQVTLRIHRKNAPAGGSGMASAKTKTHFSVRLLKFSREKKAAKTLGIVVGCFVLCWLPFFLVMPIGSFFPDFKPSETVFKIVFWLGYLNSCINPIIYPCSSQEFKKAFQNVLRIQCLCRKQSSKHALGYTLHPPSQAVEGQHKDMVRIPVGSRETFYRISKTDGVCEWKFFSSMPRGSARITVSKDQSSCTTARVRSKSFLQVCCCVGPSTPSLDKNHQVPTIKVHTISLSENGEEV
RECORDED_ENDPOINT: Ki (nM)

Worked examples, 4 compounds total:
[[record]]
compound = "COc1ccc(Cl)cc1S(=O)(=O)N[C@H]1CC[C@H](N2CCC(c3ccccc3OCC(F)(F)F)CC2)CC1"
quantitative_readout = 10

[[record]]
compound = "COc1cccc(C2CCC(NCCOc3ccccn3)CC2)c1 (stereo in doubt)"
quantitative_readout = 201

[[record]]
compound = "COc1ccccc1N1CCN(CCNc2ccc3c4c(=O)n(C)nc(Cl)c4cn3n2)CC1"
quantitative_readout = 1.1

[[record]]
compound = "COCC1=C(C(=O)OC)C(c2ccc(F)c(F)c2)N(C(=O)NCCCN2CCN(c3ccccc3C(N)=O)CC2)C(=O)N1 (stereo unspecified)"
quantitative_readout = 0.1


P = CC(C)Oc1ccccc1N1CCN(Cc2nc(CN3CCCC3=O)cs2)CC1
Q = CC1=C(C(N)=O)C(c2ccc3c(c2)OCO3)C(C(=O)NCCCN2CCC(c3ccccc3)(c3ccccc3)CC2)=C(C)N1 (stereo unspecified)
stdin: Could you determine which record has the numerically smaller Ki? Candidates: P and Q Your answer should be the label of the entry you select.
stdout: P
